Catalogue of PBM binding z-score readings, one per entry.
system: RXRa DBDmut IVT, anti-RXR (DBD mutation: RXRa K156A/R161A, NR concentration 90 nM); experiment: PBM binding z-score (relative to random genomic background probes); higher = stronger binding; sequences stand for … in GC…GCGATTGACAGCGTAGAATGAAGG
quantity.measured: PBM binding z-score

# seq.text, quantity.measured, reported.measurement
data = [
    ("GGAACGAGGGCAAGTTAATAGCAGAGTTTGATGG", "PBM binding z-score", 2.29),
    ("TCTCGGAGGACACGATGGTCAGAGCTTTCCAGAG", "PBM binding z-score", 0.266),
    ("TTACCAAGGTGTAGGTCGTTGATCCCTCTGTAGA", "PBM binding z-score", -0.0196),
    ("GCTTACGGGTCAAAGATTATAGCATGAATAGAAT", "PBM binding z-score", 2.38),
    ("ATGTGTAGGTTAGCTGGGGTCATTCAGACTAGGC", "PBM binding z-score", 2.08),
    ("GCTTACGGATCAAAGGTTATAGCATGAATAGAAT", "PBM binding z-score", 0.513),
    ("CCGACTGGGGCAGAGAGGTTACCATACCATCCGG", "PBM binding z-score", -0.642),
    ("TTACCAAGGTGAAGGGTCGTTGATGCACGCCTTG", "PBM binding z-score", 0.00143),
    ("ATCTCTAGGTAACGAGTTCAGTGAAAGAGAGGAC", "PBM binding z-score", 1.58),
    ("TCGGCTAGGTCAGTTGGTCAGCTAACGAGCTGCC", "PBM binding z-score", 0.368),
    ("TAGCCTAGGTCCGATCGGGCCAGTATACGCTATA", "PBM binding z-score", -0.969),
    ("TGAATCAGGTTATAAGATCAGGGAACGTTGCAAA", "PBM binding z-score", -0.671),
    ("ATATGTAGGTTATCGGGTCTTTCAGTTTGCGCAT", "PBM binding z-score", 0.92),
    ("CAAACTAGGTCACGAAAGGTCAAGGTCGAATGAC", "PBM binding z-score", 2.21),
    ("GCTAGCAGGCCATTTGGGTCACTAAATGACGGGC", "PBM binding z-score", -0.318),
    ("AGTACAGGGTCACTAGGCCAGAGTAGGTACGAAT", "PBM binding z-score", 2.61),
    ("AGAATGAGGTTATATGTAGATCAGGGAAGAAAGT", "PBM binding z-score", 1.74),
    ("CGTCCAACGTCAATGCTAGGTCAGTGAAAGCATT", "PBM binding z-score", 0.107),
    ("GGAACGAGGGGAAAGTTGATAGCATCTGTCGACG", "PBM binding z-score", 0.287),
    ("CCCACTGGGCCAAGGTCATTGATCAGTCAAAGCA", "PBM binding z-score", 0.687),
    ("TCTTGTAGATCAACAGGAGGTTCAGAAAGATCGA", "PBM binding z-score", 0.388),
    ("CCTCGGAGGACAGAAGGTCAGAACTGTCCGCTTT", "PBM binding z-score", 0.39),
    ("ATCTCTATGTAACAAGTTCAGTGAAAGAGAGGAC", "PBM binding z-score", 0.923),
]
